From: ChEMBL document CHEMBL3871272

# tested-on: Transthyretin (Homo sapiens)
# assay-overview: Inhibition of wild type TTR (unknown origin) assessed as inhibition of acid-mediated amyloidogenesis by measuring fibril formation preincubated with enzyme followed by amyloidogenesis stimulation by adjusting pH to 4.4 measured after 72 hrs relative to control
recorded-metric: IC50 (nM)

[
  {
    "structure-smiles": "Cc1cc(/C=C/c2cc3ccc(O)cc3nc2Cl)cc(C)c1O",
    "output-unit": "nM",
    "val": 1490
  },
  {
    "structure-smiles": "Cc1cc(C#Cc2ccc3cc(O)ccc3n2)cc(C)c1O",
    "output-unit": "nM",
    "val": 2590
  },
  {
    "structure-smiles": "Cc1cc(C#Cc2ccc3ccccc3n2)cc(C)c1O",
    "output-unit": "nM",
    "val": 2180
  },
  {
    "structure-smiles": "Cc1cc(C#Cc2ccc3cc(N)ccc3n2)cc(C)c1O",
    "output-unit": "nM",
    "val": 1900
  },
  {
    "structure-smiles": "Cc1cc(C#Cc2ccc3cc([N+](=O)[O-])ccc3n2)cc(C)c1O",
    "output-unit": "nM",
    "val": 2060
  }
]

---

# assay-overview: Cmax in Sprague-Dawley rat at 2 mg/kg, iv administered as single dose by HPLC/MS/MS method
# Format: ADME, organism-based
# Design: dose 2 mg/kg, route intravenous
# condition-description: in vivo
recorded-metric: Cmax (ng/mL)

[
  {
    "structure-smiles": "Cc1cc(C#Cc2ccc3cc(N)ccc3n2)cc(C)c1O",
    "Cmax / ng/mL": 3110
  },
  {
    "structure-smiles": "Cc1cc(/C=C/c2cc3ccc(O)cc3nc2Cl)cc(C)c1O",
    "Cmax / ng/mL": 2380
  }
]

---

# assay-overview: AUC (0 to infinity) in Sprague-Dawley rat at 2 mg/kg, iv administered as single dose by HPLC/MS/MS method
# Format: ADME, organism-based
# Parameters: dose 2 mg/kg, time infinity, route intravenous
# condition-description: in vivo
recorded-metric: AUC(0-inf) (ng·h/mL)

[P] Cc1cc(/C=C/c2cc3ccc(O)cc3nc2Cl)cc(C)c1O
[Q] Cc1cc(C#Cc2ccc3cc(N)ccc3n2)cc(C)c1O
When P and Q are compared, which has the higher number for AUC(0-inf)? Record your answer as the label of the chosen record. P

---

# assay-overview: AUC (0 to t) in Sprague-Dawley rat at 5 mg/kg, po administered as single dose via oral gavage by HPLC/MS/MS method
# Format: ADME, organism-based
# condition-description: in vivo
recorded-metric: AUC(0-t) (ng·h/mL)

[A] Cc1cc(C#Cc2ccc3cc(N)ccc3n2)cc(C)c1O
[B] Cc1cc(/C=C/c2cc3ccc(O)cc3nc2Cl)cc(C)c1O
When A and B are compared, which has the higher number for AUC(0-t)? Record your answer as the label of the chosen record. B

---

# assay-overview: AUC (0 to infinity) in Sprague-Dawley rat at 5 mg/kg, po administered as single dose via oral gavage by HPLC/MS/MS method
# Assay type: ADME, organism-based
# condition-description: in vivo
recorded-metric: AUC(0-inf) (ng·h/mL)

[A] Cc1cc(/C=C/c2cc3ccc(O)cc3nc2Cl)cc(C)c1O
[B] Cc1cc(C#Cc2ccc3cc(N)ccc3n2)cc(C)c1O
When A and B are compared, which has the higher number for AUC(0-inf)? Record your answer as the label of the chosen record. A

---

# assay-overview: Plasma clearance in Sprague-Dawley rat at 2 mg/kg, iv administered as single dose by HPLC/MS/MS method
# Format: ADME, organism-based
recorded-metric: clearance (mL/min/kg)

[I] Cc1cc(C#Cc2ccc3cc(N)ccc3n2)cc(C)c1O
[II] Cc1cc(/C=C/c2cc3ccc(O)cc3nc2Cl)cc(C)c1O
When I and II are compared, which has the higher number for clearance? Record your answer as the label of the chosen record. I
(I: 25.1 mL/min/kg, II: 7.34 mL/min/kg)

---

# assay-overview: Oral bioavailability in Sprague-Dawley rat at 5 mg/kg administered as single dose by HPLC/MS/MS method
# Type: ADME, organism-based
# condition-description: in vivo
recorded-metric: bioavailability (%)

[I] Cc1cc(/C=C/c2cc3ccc(O)cc3nc2Cl)cc(C)c1O
[II] Cc1cc(C#Cc2ccc3cc(N)ccc3n2)cc(C)c1O
# compare bioavailability for I vs II ; return the one with the smaller value Record your answer as the label of the chosen record. II

---

# tested-on: Transthyretin (Homo sapiens, UniProt P02766)
# assay-overview: Inhibition of wild type TTR (unknown origin) assessed as inhibition of acid-mediated amyloidogenesis by measuring fibril formation at 7.2 uM preincubated with enzyme followed by amyloidogenesis stimulation by adjusting pH to 4.4 measured after 72 hrs relative to control
# Parameters: scale not given: the % may be the effect or the level left
recorded-metric: Activity (%)

[
  {
    "structure-smiles": "Cc1cc(C#Cc2ccc3cc([N+](=O)[O-])ccc3n2)cc(C)c1O",
    "output-unit": "%",
    "Activity": 3.6
  },
  {
    "structure-smiles": "Cc1cc(/C=C/c2ccc3cc([N+](=O)[O-])ccc3n2)cc(C)c1O",
    "output-unit": "%",
    "Activity": 92.9
  },
  {
    "structure-smiles": "CCc1cc(C#Cc2ccc3ccccc3n2)cc(CC)c1O",
    "output-unit": "%",
    "Activity": 93.4
  }
]

[A] Cc1cc(/C=C/c2cc3ccc(O)cc3nc2Cl)cc(C)c1O
[B] Cc1cc(/C=C/c2cc3ccccc3nc2Cl)cc(C)c1O
# compare Activity for A vs B ; return the one with the smaller value Record your answer as the label of the chosen record. A
(A: 0.9%, B: 2.3%)

---

# tested-on: UniProt:P02766
# assay-overview: Inhibition of wild type TTR (unknown origin) assessed as inhibition of acid-mediated amyloidogenesis by measuring fibril formation at 3.6 uM preincubated with enzyme followed by amyloidogenesis stimulation by adjusting pH to 4.4 measured after 72 hrs relative to control
# Design: scale not given: the % may be the effect or the level left
recorded-metric: Activity (%)

[
  {
    "structure-smiles": "Cc1cc(C#Cc2ccc3cc(N)ccc3n2)cc(C)c1O",
    "output-unit": "%",
    "Activity": 17.9
  },
  {
    "structure-smiles": "O=C(O)c1ccc2nc(-c3cc(Cl)cc(Cl)c3)oc2c1",
    "output-unit": "%",
    "Activity": 14.8
  },
  {
    "structure-smiles": "Cc1cc(/C=C/c2cc3ccc(O)cc3nc2Cl)cc(C)c1O",
    "output-unit": "%",
    "Activity": 17.7
  },
  {
    "structure-smiles": "Cc1cc(C#Cc2ccc3ccccc3n2)cc(C)c1O",
    "output-unit": "%",
    "Activity": 25.6
  }
]

[I] Cc1cc(C#Cc2ccc3cc(O)ccc3n2)cc(C)c1O
[II] Cc1cc(/C=C/c2ccc3cc(N)ccc3n2)cc(C)c1O
# compare Activity for I vs II ; return the one with the smaller value Record your answer as the label of the chosen record. I

[A] Cc1cc(/C=C/c2cc3ccccc3nc2Cl)cc(C)c1O
[B] Cc1cc(C#Cc2ccc3cc([N+](=O)[O-])ccc3n2)cc(C)c1O
# compare Activity for A vs B ; return the one with the smaller value Record your answer as the label of the chosen record. B
(B: 20.9%, A: 33.2%)

---

# tested-on: Transthyretin (Homo sapiens)
# assay-overview: Inhibition of wild type TTR (unknown origin) assessed as inhibition of acid-mediated amyloidogenesis by measuring fibril formation at 7.2 uM preincubated with enzyme followed by amyloidogenesis stimulation by adjusting pH to 4.4 measured after 72 hrs relative to control
# Set-up: scale not given: the % may be the effect or the level left
recorded-metric: Activity (%)

Record excerpt, results attached:
[
  {
    "structure-smiles": "Cc1cc(C#Cc2ccc3cc(N)ccc3n2)cc(C)c1O",
    "output-unit": "%",
    "Activity": 4.8
  },
  {
    "structure-smiles": "Cc1cc(C#Cc2ccc3ccccc3n2)cc(C)c1O",
    "output-unit": "%",
    "Activity": 10.2
  },
  {
    "structure-smiles": "Cc1cc(/C=C/c2ccc3cc(N)ccc3n2)cc(C)c1O",
    "output-unit": "%",
    "Activity": 26.8
  }
]

[1] CC(C)c1cc(C#Cc2ccc3ccccc3n2)ccc1O
[2] Cc1cc(/C=C/c2ccc3ccccc3n2)cc(C)c1O
[3] O=C(O)c1ccc2nc(-c3cc(Cl)cc(Cl)c3)oc2c1
List these items ordered by Activity, big to small. Answer by writing out the labels in the requested order. 1, 2, 3

---

# assay-overview: AUC (0 to t) in Sprague-Dawley rat at 2 mg/kg, iv administered as single dose by HPLC/MS/MS method
# Format: ADME, organism-based
# condition-description: in vivo
recorded-metric: AUC(0-t) (µg·h/mL)

[a] Cc1cc(/C=C/c2cc3ccc(O)cc3nc2Cl)cc(C)c1O
[b] Cc1cc(C#Cc2ccc3cc(N)ccc3n2)cc(C)c1O
# compare AUC(0-t) for a vs b ; return the one with the smaller value Record your answer as the label of the chosen record. b
(b: 1.33 µg·h/mL, a: 4.51 µg·h/mL)
